# Lookup of reported SPOT peptide array binding signal intensity keyed by entry
molecular target: ScMyo3; test: SPOT peptide array binding signal intensity (averaged, normalized) (arbitrary units (background-subtracted, floor 0; scale differs between SH3 domains)); higher = stronger binding of the SH3 domain to the peptide
testReadout: SPOT peptide array binding signal intensity

binder	boundOperator	reading
QPPLPSSAPPIPTSH	=	2510
AAHKTKPSIPPKKVE	=	8.5
EREKALPPIPFTTTL	≤	0
NMLKKKPLKKPLKRF	=	2
